assay_target: Kappa-type opioid receptor (Homo sapiens, UniProt P41145)
Sequence (P41145 whole entry): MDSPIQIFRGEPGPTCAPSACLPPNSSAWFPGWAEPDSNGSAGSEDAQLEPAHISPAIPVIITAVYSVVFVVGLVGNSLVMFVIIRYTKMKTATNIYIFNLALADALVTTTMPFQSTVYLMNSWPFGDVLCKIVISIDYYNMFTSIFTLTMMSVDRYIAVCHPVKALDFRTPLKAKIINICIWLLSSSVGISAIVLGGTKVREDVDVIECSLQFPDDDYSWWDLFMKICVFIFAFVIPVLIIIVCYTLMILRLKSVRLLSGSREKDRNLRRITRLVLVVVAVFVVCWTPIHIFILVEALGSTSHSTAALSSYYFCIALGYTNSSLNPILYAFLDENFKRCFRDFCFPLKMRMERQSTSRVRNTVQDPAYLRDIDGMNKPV
Format: functional
quantity: pEC50
pEC50 is a log-scale quantity: -log10 of the concentration expressed in molar.

q: Suppose we examine the compound Cc1c(Cl)sn(-c2ccc(Cl)cc2)c1=O ; what pEC50 value has been reported?
a: 5.20

* * *

assay_target: Sentrin-specific protease 7 (Homo sapiens, UniProt Q9BQF6);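 also: Luminescence-based dose-response confirmation of ultra-high-throughput screening hits, measuring inhibition of SENP7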
Sequence (Q9BQF6 whole entry): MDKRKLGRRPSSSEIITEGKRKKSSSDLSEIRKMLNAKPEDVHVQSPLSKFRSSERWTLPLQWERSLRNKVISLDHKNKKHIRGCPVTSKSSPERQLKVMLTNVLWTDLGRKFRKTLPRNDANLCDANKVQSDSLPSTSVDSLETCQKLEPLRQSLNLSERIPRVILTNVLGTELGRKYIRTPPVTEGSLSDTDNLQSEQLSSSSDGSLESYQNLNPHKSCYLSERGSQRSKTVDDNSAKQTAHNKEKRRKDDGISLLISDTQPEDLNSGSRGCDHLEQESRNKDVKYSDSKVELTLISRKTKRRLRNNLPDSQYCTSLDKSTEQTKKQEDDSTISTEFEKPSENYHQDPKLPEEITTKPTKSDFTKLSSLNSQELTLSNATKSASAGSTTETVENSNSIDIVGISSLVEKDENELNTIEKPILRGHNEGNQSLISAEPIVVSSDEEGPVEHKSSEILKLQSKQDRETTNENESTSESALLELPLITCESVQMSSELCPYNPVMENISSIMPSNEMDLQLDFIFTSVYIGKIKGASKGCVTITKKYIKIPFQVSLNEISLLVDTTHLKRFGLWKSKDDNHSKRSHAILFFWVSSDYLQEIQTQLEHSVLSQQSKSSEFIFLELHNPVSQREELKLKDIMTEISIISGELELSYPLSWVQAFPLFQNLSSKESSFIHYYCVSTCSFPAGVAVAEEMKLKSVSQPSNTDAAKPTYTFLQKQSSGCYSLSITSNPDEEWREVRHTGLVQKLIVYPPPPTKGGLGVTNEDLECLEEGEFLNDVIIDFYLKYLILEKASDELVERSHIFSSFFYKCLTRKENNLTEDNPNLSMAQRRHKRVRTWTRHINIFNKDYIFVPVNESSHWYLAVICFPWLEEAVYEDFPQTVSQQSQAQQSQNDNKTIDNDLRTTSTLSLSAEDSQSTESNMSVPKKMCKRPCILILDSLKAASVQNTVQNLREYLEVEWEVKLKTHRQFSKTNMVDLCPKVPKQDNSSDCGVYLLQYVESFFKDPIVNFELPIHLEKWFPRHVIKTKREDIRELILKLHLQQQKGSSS
Type: functional
Calls of active or inactive are those of the source.
IC50 by entry:

Cc1cc(C)nc(Nc2nc(-c3ccccc3)cs2)n1	1.89 µM (active)
O=C(Nc1ccc(C#Cc2ccccc2)cc1)C1CC1	3.38 µM (active)
CCCCn1c(NC(=O)c2ccco2)c(C(=O)OCC)c2nc3ccccc3nc21	10.1 µM (active)
Cc1ccccc1/C=C\c1nc(O)c2ccccc2n1	2.16 µM (active)
COc1ccc(-c2cc(-c3ccc(C)cc3)[nH]n2)c(O)c1	6.63 µM (active)
Cc1ccc(NC2=C/C(=N/S(=O)(=O)c3cccs3)c3ccccc3C2=O)cc1	0.359 µM (active)

The record that follows has no IC50 shown yet.
q: Suppose we examine the molecule C/C(=N\OC(=O)c1ccccc1F)c1nccs1 ; what IC50 value has been reported?
a: 2.97 µM (active)

Origin of the recorded values: ChEMBL document CHEMBL1201862
